Recorded IC50 values for a group of compounds are listed next.
test system: N. fowleri ATCC® 30215™ trophozoites; assay: In vitro amoebicidal activity against N. fowleri trophozoites (alamarBlue), strain ATCC 30215; format: cell-based, Naegleria fowleri; details: Naegleria fowleri, ATCC30215; trophozoite stage; 48 h; mean ± SD
Answer format: value, then unit.

CCCCCCCCCCCCCCCCOP(=O)([O-])OCC[N+](C)(C)C [Miltefosine, reference compound] ... 81.6 µM
COC(=O)[C@]12CC[C@@H](C)[C@H](C)[C@H]1C1=CC[C@@H]3[C@@]4(C)CC[C@H](O)C(C)(C)[C@@H]4CC[C@@]3(C)[C@]1(C)CC2 [Compound 2, methyl ursolate] ... 84.5 µM
COC(=O)[C@]12CC[C@@H](C)[C@H](C)C1C1=CCC3[C@@]4(C)CC[C@H](OC(=O)CCC(=O)O)C(C)(C)C4CC[C@@]3(C)[C@]1(C)CC2 (stereo partly drawn) [Compound 7, 3-O-(Hemisuccinyl)-methyl ursolate] ... 29.7 µM
C[C@@H]1[C@H](O)[C@@H](C)/C=C/C=C/C=C/C=C/C=C/C=C/C=C/[C@H](O[C@@H]2O[C@H](C)[C@@H](O)[C@H](N)[C@@H]2O)C[C@@H]2O[C@](O)(C[C@@H](O)C[C@@H](O)[C@H](O)CC[C@@H](O)C[C@@H](O)CC(=O)O[C@H]1C)C[C@H](O)[C@H]2C(=O)O [Amphotericin B, reference compound] ... 0.16 µM
C[C@H]1[C@H](C)CC[C@]2(C(=O)O)CC[C@]3(C)C(=CC[C@@H]4[C@@]5(C)CC[C@H](O)C(C)(C)[C@@H]5CC[C@]43C)[C@H]12 ... 82.5 µM

Read the next record carefully.
Tell me its IC50 given COC(=O)[C@]12CC[C@@H](C)[C@H](C)C1C1=CCC3[C@@]4(C)CC[C@H](OC(=O)CCCC(=O)O)C(C)(C)C4CC[C@@]3(C)[C@]1(C)CC2 (stereo partly drawn) [Compound 8, 3-O-(Hemiglutaryl)-methyl ursolate] as the entry.
38.7 µM

* * *

Reported CC50 at 24 h values are given for each entry in this list.
test: In vitro cytotoxicity on murine macrophages (alamarBlue); format: cell-based; conditions: mouse, J774A.1 murine macrophage cell line (ATCC TIB-67), mean ± SD

The following molecules have reported results that may help.
COC(=O)[C@]12CC[C@@H](C)[C@H](C)C1C1=CCC3[C@@]4(C)CC[C@H](OC(=O)CCC(=O)O)C(C)(C)C4CC[C@@]3(C)[C@]1(C)CC2 (stereo partly drawn) [Compound 7, 3-O-(Hemisuccinyl)-methyl ursolate] ... > 175 µM
C[C@@H]1[C@H](O)[C@@H](C)/C=C/C=C/C=C/C=C/C=C/C=C/C=C/[C@H](O[C@@H]2O[C@H](C)[C@@H](O)[C@H](N)[C@@H]2O)C[C@@H]2O[C@](O)(C[C@@H](O)C[C@@H](O)[C@H](O)CC[C@@H](O)C[C@@H](O)CC(=O)O[C@H]1C)C[C@H](O)[C@H]2C(=O)O [Amphotericin B, reference compound] ... > 200 µM
C[C@H]1[C@H](C)CC[C@]2(C(=O)O)CC[C@]3(C)C(=CC[C@@H]4[C@@]5(C)CC[C@H](O)C(C)(C)[C@@H]5CC[C@]43C)[C@H]12 ... 35.9 µM
COC(=O)[C@]12CC[C@@H](C)[C@H](C)C1C1=CCC3[C@@]4(C)CC[C@H](OC(=O)CCCC(=O)O)C(C)(C)C4CC[C@@]3(C)[C@]1(C)CC2 (stereo partly drawn) [Compound 8, 3-O-(Hemiglutaryl)-methyl ursolate] ... 85 µM
COC(=O)[C@]12CC[C@@H](C)[C@H](C)[C@H]1C1=CC[C@@H]3[C@@]4(C)CC[C@H](O)C(C)(C)[C@@H]4CC[C@@]3(C)[C@]1(C)CC2 [Compound 2, methyl ursolate] ... 49.6 µM

Could you now look at the following molecule, please?
Give recorded CC50 at 24 h. CCCCCCCCCCCCCCCCOP(=O)([O-])OCC[N+](C)(C)C [Miltefosine, reference compound]
128 µM
